- TEST_TARGET: T1, Recombinant human leptin binding domain (hLBD) (human, UniProt P48357 428-635, biotinylated with Sulfo-NHS-LC-Biotin in the yeast display assays; not labelled when immobilized in the plate binding assay)
- T1 construct: CRH2 sub-domain of the leptin receptor; Prepared in the applicants' laboratory; also called soluble human leptin receptor; CHR2
- T1 sequence (looked up): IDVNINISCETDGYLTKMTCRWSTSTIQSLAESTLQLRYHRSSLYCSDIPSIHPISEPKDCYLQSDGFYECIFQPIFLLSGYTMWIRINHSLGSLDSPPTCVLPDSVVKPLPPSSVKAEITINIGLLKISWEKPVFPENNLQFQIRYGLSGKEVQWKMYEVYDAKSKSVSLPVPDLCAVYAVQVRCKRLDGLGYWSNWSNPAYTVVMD
- PROTOCOL_DESCRIPTION: yeast display, flow cytometry titration with biotinylated hLBD (FIG. 4A)
Measured Bmax, listed per entry for reference.

{"columns": ["BINDER", "Bmax, MFI"],
 "data": [
  ["yeast-displayed mouse leptin clone H3 (D23G, L68M, S97F, S132Y) (ligand, UniProt P41160 22-167, looked up, not shown: large carriers; small tags and cut ends, mature; also called H15; H4) VPIQKVQDDTKTLIKTIVTRINGISHTQSVSAKQRVTGLDFIPGLHPILSLSKMDQTLAVYQQVLTSMPSQNVLQIANDLENLRDLLHLLAFSKSCFLPQTSGLQKPESLDGVLEASLYSTEVVALSRLQGYLQDILQQLDVSPEC", 1450],
  ["yeast-displayed mouse leptin clone H30 (D23H) (ligand, UniProt P41160 22-167, looked up, not shown: large carriers; small tags and cut ends, mature) VPIQKVQDDTKTLIKTIVTRINHISHTQSVSAKQRVTGLDFIPGLHPILSLSKMDQTLAVYQQVLTSLPSQNVLQIANDLENLRDLLHLLAFSKSCSLPQTSGLQKPESLDGVLEASLYSTEVVALSRLQGSLQDILQQLDVSPEC", 847],
  ["yeast-displayed mouse leptin clone H17 (S109F) (ligand, UniProt P41160 22-167, looked up, not shown: large carriers; small tags and cut ends, mature) VPIQKVQDDTKTLIKTIVTRINDISHTQSVSAKQRVTGLDFIPGLHPILSLSKMDQTLAVYQQVLTSLPSQNVLQIANDLENLRDLLHLLAFSKSCSLPQTSGLQKPEFLDGVLEASLYSTEVVALSRLQGSLQDILQQLDVSPEC", 3600],
  ["yeast-displayed mouse leptin clone H12 (S97Y) (ligand, UniProt P41160 22-167, looked up, not shown: large carriers; small tags and cut ends, mature; also called H20; H24) VPIQKVQDDTKTLIKTIVTRINDISHTQSVSAKQRVTGLDFIPGLHPILSLSKMDQTLAVYQQVLTSLPSQNVLQIANDLENLRDLLHLLAFSKSCYLPQTSGLQKPESLDGVLEASLYSTEVVALSRLQGSLQDILQQLDVSPEC", 961]
]}
